# Test Method Notes: Liver microsomal stability
# Condition Notes: mouse liver microsomes
Readout Label: Microsomal Stability mCLint

Answered cases to consult:
> print(dat)
                               given.smiles                readout.label  measured.value
1  CC(C)C[C@H](NC(=O)[C@@H]1CSCCCCCCCCCC(=O)N[C@@H](C(C)C)C(=O)N1)C(=O)[C@@]1(C)CO1  Microsomal Stability mCLint    33 µL/min/mg
2  CC(C)C[C@H](NC(=O)[C@@H]1Cc2c(F)c(F)c(c(F)c2F)Sc2cccc(c2)CC(=O)NC(C)(C)C(=O)N1)C(=O)[C@@]1(C)CO1  Microsomal Stability mCLint   182 µL/min/mg
3  CC(C)C[C@H](NC(=O)[C@@H]1Cc2c(F)c(F)c(c(F)c2F)S(=O)(=O)c2cccc(c2)CC(=O)N[C@@H](C(C)C)C(=O)N1)C(=O)[C@@]1(C)CO1  Microsomal Stability mCLint    43 µL/min/mg

Continue with the next compound.
Just so you know, measured Microsomal Stability mCLint for CC(C)C[C@H](NC(=O)[C@@H]1Cc2c(F)c(F)c(c(F)c2F)Sc2cccc(c2)CC(=O)N[C@@H](C(C)C)C(=O)N1)C(=O)[C@@]1(C)CO1 came out at 202 µL/min/mg
